Numbers sourced from patent US20260242350A1.

tested-system: THRβ LBD (His-GST-dLBT-THRβLBD) (Homo sapiens, UniProt P10828)
assay-method-text: THR-FRET (time-resolved fluorescence resonance energy transfer) agonist activity assay, THRβ
test-conditions: 24 h at room temperature
pEC50: −log10 of the molar value.
A collection of compounds and their measured pEC50

{"compound": "O=C(O)C(=O)Nc1cc(Cl)c(Cn2ccc(=O)c3ccccc32)c(Cl)c1 [Compound 62]", "pEC50": "7.00 to 7.30"}
{"compound": "[2H]C(c1c(Br)cc(-n2nc(C(F)F)c(=O)[nH]c2=O)cc1Br)n1ccc(=O)c2ccccc21 (stereo not shown) [Compound 72]", "pEC50": "> 7.30"}
{"compound": "O=c1[nH]nc(CNc2cc(Cl)c(Cn3ccc(=O)c4ccccc43)c(Cl)c2)o1 [Compound 63]", "pEC50": "6.00 to 7.00"}
{"compound": "O=C(O)CNc1cc(Cl)c(Cn2ccc(=O)c3ccccc32)c(Cl)c1 [Compound 60]", "pEC50": "6.00 to 7.00"}

* * *

tested-system: THRβ LBD (His-GST-dLBT-THRβLBD) (Homo sapiens)
Construct: made in house; host or cells: E. coli BL21 (DE3)
Sequence (P10828 217-461 limits assumed): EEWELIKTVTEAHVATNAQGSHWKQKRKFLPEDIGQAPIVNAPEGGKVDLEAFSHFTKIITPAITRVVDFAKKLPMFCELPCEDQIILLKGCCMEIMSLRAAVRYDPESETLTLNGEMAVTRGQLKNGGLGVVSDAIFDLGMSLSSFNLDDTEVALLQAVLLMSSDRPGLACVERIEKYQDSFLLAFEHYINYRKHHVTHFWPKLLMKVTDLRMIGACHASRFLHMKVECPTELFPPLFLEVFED
assay-method-text: THR-FRET (time-resolved fluorescence resonance energy transfer) agonist activity assay, THRβ
Format: biochemical
test-conditions: ratio of EC50 THRα/THRβ
Method: Experimental Example 1: Detection of Agonist Activities of Compounds Against THRα/β Based on Time-Resolved Fluorescence Resonance Energy Transfer (THR-FRET) 1. Construction of THRα/β Overexpression Vectors […] The final concentrations of all components were calculated based on a system with a final volume of 20 µL per well. […] The plate was read using an MD i3x multi-mode microplate reader with the excitation and emission wavelengths of 340 nm and 665 nm, respectively. […]

{"smi": "O=c1[nH]nc(CNc2cc(Cl)c(Cn3ccc(=O)c4ccccc43)c(Cl)c2)o1", "Selectivity (THRα/THRβ)": "†† (10 > THRα/β > 1)"}
{"smi": "Cc1nn(-c2cc(Cl)c(Cn3ccc(=O)c4c(C)cccc43)c(Cl)c2)c(=O)[nH]c1=O", "Selectivity (THRα/THRβ)": "†† (10 > THRα/β > 1)"}
{"smi": "C#Cc1nn(-c2cc(Cl)c(Cn3ccc(=O)c4ccccc43)c(Cl)c2)c(=O)[nH]c1=O", "Selectivity (THRα/THRβ)": "†† (10 > THRα/β > 1)"}
{"smi": "O=C(O)CNc1cc(Cl)c(Cn2ccc(=O)c3ccccc32)c(Cl)c1", "Selectivity (THRα/THRβ)": "†† (10 > THRα/β > 1)"}

* * *

tested-system: THRα LBD (His-GST-dLBT-THRα LBD) (Homo sapiens, UniProt P10827)
Sequence (P10827 163-407 isoform P10827-2): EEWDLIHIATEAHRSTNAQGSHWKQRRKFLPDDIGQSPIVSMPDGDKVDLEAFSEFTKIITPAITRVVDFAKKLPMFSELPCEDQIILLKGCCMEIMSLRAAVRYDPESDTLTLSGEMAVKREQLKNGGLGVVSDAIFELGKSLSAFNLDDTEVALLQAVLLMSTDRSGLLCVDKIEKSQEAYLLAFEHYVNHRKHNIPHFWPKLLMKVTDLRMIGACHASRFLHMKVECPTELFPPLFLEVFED
assay-method-text: THR-FRET (time-resolved fluorescence resonance energy transfer) agonist activity assay, THRα
test-conditions: 24 h at room temperature
pEC50: −log10 of the molar value.
A collection of compounds and their measured pEC50

{"smi": "Cc1cccc2c1c(=O)ccn2Cc1c(Cl)cc(-n2nc(C(F)F)c(=O)[nH]c2=O)cc1Br", "pEC50": "> 7.30"}
{"smi": "O=c1[nH]c(=O)n(-c2cc(Cl)c(Cn3ccc(=O)c4ccccc43)c(Cl)c2)nc1C(F)F", "pEC50": "6.00 to 7.00"}
{"smi": "O=C(O)CNc1cc(Cl)c(Cn2ccc(=O)c3ccccc32)c(Cl)c1", "pEC50": "6.00 to 7.00"}
{"smi": "O=c1[nH]c(CNc2cc(Cl)c(Cn3ccc(=O)c4ccccc43)c(Cl)c2)no1", "pEC50": "6.00 to 7.00"}
{"smi": "O=c1[nH]c(=O)n(-c2cc(Cl)c(Cn3ccc(=O)c4ccccc43)c(Cl)c2)nc1CF", "pEC50": "6.00 to 7.00"}
{"smi": "Cc1cccc2c1c(=O)ccn2Cc1c(Cl)cc(-n2ncc(=O)[nH]c2=O)cc1Cl", "pEC50": "6.00 to 7.00"}
{"smi": "O=c1cnn(-c2cc(Cl)c(Cn3ccc(=O)c4c(Cl)cccc43)c(Cl)c2)c(=O)[nH]1", "pEC50": "5.00 to 6.00"}
{"smi": "N#Cc1nn(-c2cc(Cl)c(Cn3ccc(=O)c4ccccc43)c(Cl)c2)c(=O)[nH]c1=O", "pEC50": "5.00 to 6.00"}
{"smi": "O=c1cnn(-c2cc(Cl)c(Cn3ccc(=O)c4ccccc43)c(Cl)c2)c(=O)[nH]1", "pEC50": "5.00 to 6.00"}
{"smi": "C=Cc1nn(-c2cc(Cl)c(Cn3ccc(=O)c4ccccc43)c(Cl)c2)c(=O)[nH]c1=O", "pEC50": "5.00 to 6.00"}

* * *

tested-system: THRβ LBD (His-GST-dLBT-THRβLBD) (Homo sapiens, UniProt P10828)
Construct: made in house; host or cells: E. coli BL21 (DE3)
Sequence (P10828 217-461 limits assumed): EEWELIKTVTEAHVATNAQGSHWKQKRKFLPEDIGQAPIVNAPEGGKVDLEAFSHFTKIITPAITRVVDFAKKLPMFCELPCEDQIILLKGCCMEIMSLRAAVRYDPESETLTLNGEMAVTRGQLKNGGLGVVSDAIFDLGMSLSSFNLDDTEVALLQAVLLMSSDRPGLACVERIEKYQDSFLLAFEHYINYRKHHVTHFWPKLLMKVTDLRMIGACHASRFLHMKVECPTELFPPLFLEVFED
assay-method-text: THR-FRET (time-resolved fluorescence resonance energy transfer) agonist activity assay, THRβ
Type: biochemical
test-conditions: ratio of EC50 THRα/THRβ
measured-endpoint: Selectivity (THRα/THRβ)

{"molecule": "O=c1[nH]c(=O)n(-c2cc(Cl)c(Cn3ccc(=O)c4ccccc43)c(Br)c2)nc1C(F)F [Compound 30]", "tested-system": "THRβ LBD (His-GST-dLBT-THRβLBD) (Homo sapiens, UniProt P10828)", "observed-value": "†† (10 > THRα/β > 1)"}
{"molecule": "[2H]C(c1c(Br)cc(-n2nc(C(F)F)c(=O)[nH]c2=O)cc1Br)n1ccc(=O)c2ccccc21 (stereo not drawn) [Compound 72]", "tested-system": "THRβ LBD (His-GST-dLBT-THRβLBD) (Homo sapiens, UniProt P10828)", "observed-value": "†† (10 > THRα/β > 1)"}
{"molecule": "O=c1[nH]c(=O)n(-c2cc(Br)c(Cn3ccc(=O)c4ccccc43)c(Br)c2)nc1C(F)F [Compound 29]", "tested-system": "THRβ LBD (His-GST-dLBT-THRβLBD) (Homo sapiens, UniProt P10828)", "observed-value": "†† (10 > THRα/β > 1)"}
{"molecule": "O=c1[nH]c(=O)n(-c2cc(Cl)c(Cn3ccc(=O)c4ccccc43)c(Cl)c2)nc1CF [Compound 37]", "tested-system": "THRβ LBD (His-GST-dLBT-THRβLBD) (Homo sapiens, UniProt P10828)", "observed-value": "†† (10 > THRα/β > 1)"}
{"molecule": "O=c1cnn(-c2cc(Cl)c(Cn3ccc(=O)c4c(Cl)cccc43)c(Cl)c2)c(=O)[nH]1 [Compound 13]", "tested-system": "THRβ LBD (His-GST-dLBT-THRβLBD) (Homo sapiens, UniProt P10828)", "observed-value": "†† (10 > THRα/β > 1)"}
{"molecule": "Nc1nn(-c2cc(Cl)c(Cn3ccc(=O)c4ccccc43)c(Cl)c2)c(=O)[nH]c1=O [Compound 32]", "tested-system": "THRβ LBD (His-GST-dLBT-THRβLBD) (Homo sapiens, UniProt P10828)", "observed-value": "†† (10 > THRα/β > 1)"}

* * *

tested-system: THRβ LBD (His-GST-dLBT-THRβLBD) (Homo sapiens, UniProt P10828)
Sequence (P10828 217-461 limits assumed): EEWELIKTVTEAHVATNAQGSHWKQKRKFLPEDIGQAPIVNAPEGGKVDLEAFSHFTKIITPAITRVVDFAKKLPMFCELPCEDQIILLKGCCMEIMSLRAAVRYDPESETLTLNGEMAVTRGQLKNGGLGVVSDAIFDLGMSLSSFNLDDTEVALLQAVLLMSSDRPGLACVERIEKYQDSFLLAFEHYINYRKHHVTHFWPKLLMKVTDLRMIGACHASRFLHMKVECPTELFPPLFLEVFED
assay-method-text: THR-FRET (time-resolved fluorescence resonance energy transfer) agonist activity assay, THRβ
test-conditions: 24 h at room temperature

{"smi": "O=c1cnn(-c2cc(Cl)c(Cn3ccc(=O)c4c(Cl)cccc43)c(Cl)c2)c(=O)[nH]1", "EC50": "100 to 1000 nM"}
{"smi": "Cc1cccc2c1c(=O)ccn2Cc1c(Br)cc(-n2nc(C(F)F)c(=O)[nH]c2=O)cc1Br", "EC50": "50 to 100 nM"}
{"smi": "Cc1nn(-c2cc(Cl)c(Cn3ccc(=O)c4ccccc43)c(Cl)c2)c(=O)[nH]c1=O", "EC50": "100 to 1000 nM"}
{"smi": "Cc1cccc2c1c(=O)ccn2Cc1c(Cl)cc(-n2ncc(=O)[nH]c2=O)cc1Cl", "EC50": "100 to 1000 nM"}
{"smi": "O=c1cnn(-c2cc(Br)c(Cn3ccc(=O)c4ccccc43)c(Br)c2)c(=O)[nH]1", "EC50": "< 50 nM"}
{"smi": "O=c1cnn(-c2cc(Cl)c(Cn3ccc(=O)c4ccccc43)c(Br)c2)c(=O)[nH]1", "EC50": "100 to 1000 nM"}
{"smi": "Cc1cccc2c1c(=O)ccn2Cc1c(Cl)cc(-n2ncc(=O)[nH]c2=O)cc1Br", "EC50": "< 50 nM"}
{"smi": "O=c1ccn(Cc2c(Cl)cc(NCc3nnn[nH]3)cc2Cl)c2ccccc12", "EC50": "< 50 nM"}
